- STUDY_TARGET: S. aureus GyrB ATPase (Staphylococcus aureus, UniProt P0A0K8)
- Sequence (P0A0K8 whole entry): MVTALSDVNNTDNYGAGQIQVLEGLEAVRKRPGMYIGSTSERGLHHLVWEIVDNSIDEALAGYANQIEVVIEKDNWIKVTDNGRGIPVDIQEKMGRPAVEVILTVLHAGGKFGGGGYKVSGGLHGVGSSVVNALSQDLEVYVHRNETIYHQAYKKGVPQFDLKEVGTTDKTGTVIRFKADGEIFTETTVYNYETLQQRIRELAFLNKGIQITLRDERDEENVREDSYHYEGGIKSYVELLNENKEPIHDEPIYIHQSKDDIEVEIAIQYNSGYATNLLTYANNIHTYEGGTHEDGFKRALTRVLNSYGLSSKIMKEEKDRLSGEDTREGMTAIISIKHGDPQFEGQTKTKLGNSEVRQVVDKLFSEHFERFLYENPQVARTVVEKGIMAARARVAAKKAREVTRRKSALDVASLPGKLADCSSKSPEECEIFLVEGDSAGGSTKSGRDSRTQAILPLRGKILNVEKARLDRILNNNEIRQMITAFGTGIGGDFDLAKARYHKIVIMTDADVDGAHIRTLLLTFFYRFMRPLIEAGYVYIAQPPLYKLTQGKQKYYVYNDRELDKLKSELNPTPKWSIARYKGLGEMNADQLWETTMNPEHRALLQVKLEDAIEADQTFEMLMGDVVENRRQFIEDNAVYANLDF
- Sequence (P0AES4 whole entry, further chain): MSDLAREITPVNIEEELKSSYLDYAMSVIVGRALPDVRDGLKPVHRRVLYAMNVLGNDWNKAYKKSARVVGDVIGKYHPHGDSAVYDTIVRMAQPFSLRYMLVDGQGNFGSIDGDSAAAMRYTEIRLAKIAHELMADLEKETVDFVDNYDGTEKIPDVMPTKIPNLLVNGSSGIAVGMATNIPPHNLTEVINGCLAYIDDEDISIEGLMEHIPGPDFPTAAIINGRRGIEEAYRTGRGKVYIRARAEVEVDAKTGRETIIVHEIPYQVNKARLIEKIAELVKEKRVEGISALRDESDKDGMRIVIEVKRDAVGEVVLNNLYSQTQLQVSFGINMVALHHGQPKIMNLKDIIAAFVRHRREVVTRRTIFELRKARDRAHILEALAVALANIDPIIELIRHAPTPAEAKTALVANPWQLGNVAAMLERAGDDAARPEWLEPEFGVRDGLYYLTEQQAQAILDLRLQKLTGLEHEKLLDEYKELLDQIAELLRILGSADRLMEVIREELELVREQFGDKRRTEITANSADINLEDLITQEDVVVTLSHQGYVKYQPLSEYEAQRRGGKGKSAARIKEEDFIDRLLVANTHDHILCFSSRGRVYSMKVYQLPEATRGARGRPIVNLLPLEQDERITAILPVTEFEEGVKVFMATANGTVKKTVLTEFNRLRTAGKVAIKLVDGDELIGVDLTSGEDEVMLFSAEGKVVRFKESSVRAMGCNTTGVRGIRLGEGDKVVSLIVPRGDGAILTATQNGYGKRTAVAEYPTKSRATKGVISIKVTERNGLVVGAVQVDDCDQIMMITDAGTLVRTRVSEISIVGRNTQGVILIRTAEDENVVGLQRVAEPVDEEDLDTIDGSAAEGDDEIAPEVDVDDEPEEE
- MEASUREMENT_DESCRIPTION: S. aureus (SAU) GyrB ATPase inhibition, malachite green phosphate detection (E. coli GyrA + S. aureus GyrB)
- Assay type: biochemical
- MEASUREMENT_PARAMETERS: compound concentration of 1.0 μM unless otherwise noted; average value where assay was carried out more than once; read-out: S. aureus (SAU) GyrB ATPase % Inhibition
MEASURED_METRIC: inhibition at 1 µM (%)
Provide only the numeric value, understood in %.

CCNC(=O)Nc1cc(-c2nc(C(F)(F)F)cs2)c(-c2cncc(-c3nc(C)no3)c2)cn1
95
CCNC(=O)Nc1cc(-c2nnc(-c3ccccc3)o2)c(-c2cnc(OC)c(-c3n[nH]c(=O)o3)c2)cn1
106
CCNC(=O)Nc1cc(-c2nc(C(F)(F)F)cs2)c(-c2cccc(C#N)n2)cn1
106
CCNC(=O)Nc1cc(-c2nc(C(F)(F)F)cs2)c(-c2cc(-c3n[nH]c(=O)o3)cnc2CC)cn1
93
CCNC(=O)Nc1cc(-c2nc(-c3ccccc3)cs2)c(-c2nc(-c3ncnn3C)c(-c3n[nH]c(=O)o3)s2)cn1
93
CCNC(=O)Nc1cc(-c2nc(-c3cccc(OC)n3)cs2)c(-c2cncc(-c3n[nH]c(=O)o3)n2)cn1
97

GET /value?item= `CCNC(=O)Nc1cc(-c2nc(C(F)(F)F)c(C(=O)NC3CC3)s2)c(-c2cncc(-c3n[nH]c(=O)o3)c2)cn1` &field=inhibition at 1 µM returns 94

Consider `CCNC(=O)Nc1cc(-c2nc(C(F)(F)F)cs2)c(-c2cncc(-c3nn(C(=O)N4CCCC4)c(=O)o3)c2)cn1` . Its measured inhibition at 1 µM is 97

Just so you know, measured inhibition at 1 µM for `CCNC(=O)Nc1cc(-c2nc(C(F)(F)F)cs2)c(-c2cncc(-c3nnc([C@H](C)O)o3)c2)cn1` came out at 110

Lab note: `CCNC(=O)Nc1cc(-c2nc(C(F)(F)F)cs2)c(-c2cccc(-n3cccn3)n2)cn1` gave inhibition at 1 µM of 114

Query `CCNC(=O)Nc1cc(-c2nc(C(F)(F)F)cs2)c(-c2cc(-c3n[nH]c(=O)o3)nc(N3CCOCC3)c2)cn1` yields inhibition at 1 µM of 97

GET /value?item= `CCNC(=O)Nc1cc(-c2nc(C(F)(F)F)c(C(=O)NCCN3CCN(C)CC3)s2)c(-c2cncc(-c3nnc(C)o3)c2)cn1` &field=inhibition at 1 µM returns 98

###

# inhibition at 1 µM annotations
- STUDY_TARGET: S. aureus GyrB ATPase (Staphylococcus aureus, UniProt P0A0K8)
- MEASUREMENT_DESCRIPTION: S. aureus (SAU) GyrB ATPase inhibition, malachite green phosphate detection (E. coli GyrA + S. aureus GyrB)
- Assay type: biochemical
- MEASUREMENT_PARAMETERS: compound concentration of 1.0 μM unless otherwise noted; average value where assay was carried out more than once; read-out: S. aureus (SAU) GyrB ATPase % Inhibition
Just the number in %, nothing appended.

Solved entries:
CCNC(=O)Nc1cc(-c2nc(C(F)(F)F)c(C(=O)NCCN3CCOCC3)s2)c(-c2cncc(-c3nnc(C)o3)c2)cn1 [Example 62]
86
CCNC(=O)Nc1cc(-c2nc(C(F)(F)F)cs2)c(-c2cc(-c3n[nH]c(=O)o3)cnc2OC)cn1 [Example 101]
97
CCNC(=O)Nc1cc(-c2nc(-c3cccc(OC)n3)cs2)c(-c2ccnc(-c3n[nH]c(=O)o3)c2)cn1 [Example 248]
104
CCNC(=O)Nc1cc(-c2nc(-c3ccccc3)cs2)c(-c2cncc(S(N)(=O)=O)c2)cn1 [Example 128]
92
CCNC(=O)Nc1cc(-c2nc(C(F)(F)F)cs2)c(-c2cncc(-c3nnc(C(C)C)s3)c2)cn1 [Example 5]
112
CCNC(=O)Nc1cc(-c2nc(-c3ccccc3)cs2)c(-c2cc(-c3n[nH]c(=O)o3)nc(N3CCOCC3)c2)cn1 [Example 88]
94

According to the records, this molecule CCNC(=O)Nc1cc(-c2nc(-c3cccnc3F)cs2)c(-c2cncc(-c3n[nH]c(=O)o3)c2)cn1 [Example 204] displays inhibition at 1 µM of 101

Entry CCNC(=O)Nc1cc(-c2nc(C(F)(F)F)cs2)c(-c2csc(N3CCOCC3)n2)cn1 [Example 30] ; inhibition at 1 µM = 105

Measured inhibition at 1 µM of CCNC(=O)Nc1cc(-c2nc(C(F)(F)F)cs2)c(-c2ccc(F)nc2)cn1 [Example 127] : 100

// CCNC(=O)Nc1cc(-c2nc3ccccc3s2)c(-c2cncc(-c3n[nH]c(=O)o3)c2)cn1 [Example 12] : inhibition at 1 µM value = 108

CCNC(=O)Nc1cc(-c2nc(C(F)(F)F)cs2)c(-c2cc(-c3n[nH]c(=O)o3)cnc2OC2CCN(C(C)C)CC2)cn1 [Example 219] yielded inhibition at 1 µM of 97

Form: molecule = CCNC(=O)Nc1cc(-c2nc(C(F)(F)F)cs2)c(-c2cc(-c3n[nH]c(=O)o3)cnc2OCCN(C(C)C)C(C)C)cn1 [Example 120] ; inhibition at 1 µM = 118

// inhibition at 1 µM lookup, molecule = CCNC(=O)Nc1cc(-c2nc(C(F)(F)F)cs2)c(-c2cc(-c3n[nH]c(=O)o3)cnc2OCCN2CCOCC2)cn1 [Example 102] , result: 92

Form: molecule = CCNC(=O)Nc1cc(-c2nc(-c3ccccn3)cs2)c(-c2nc(-c3ncccn3)c(-c3n[nH]c(=O)o3)s2)cn1 [Example 201] ; inhibition at 1 µM = 107
